For each of the molecules below, state its IC50.
# target-or-system: Cytochrome P450 3A4 (Homo sapiens)
# Sequence (P08684 whole entry): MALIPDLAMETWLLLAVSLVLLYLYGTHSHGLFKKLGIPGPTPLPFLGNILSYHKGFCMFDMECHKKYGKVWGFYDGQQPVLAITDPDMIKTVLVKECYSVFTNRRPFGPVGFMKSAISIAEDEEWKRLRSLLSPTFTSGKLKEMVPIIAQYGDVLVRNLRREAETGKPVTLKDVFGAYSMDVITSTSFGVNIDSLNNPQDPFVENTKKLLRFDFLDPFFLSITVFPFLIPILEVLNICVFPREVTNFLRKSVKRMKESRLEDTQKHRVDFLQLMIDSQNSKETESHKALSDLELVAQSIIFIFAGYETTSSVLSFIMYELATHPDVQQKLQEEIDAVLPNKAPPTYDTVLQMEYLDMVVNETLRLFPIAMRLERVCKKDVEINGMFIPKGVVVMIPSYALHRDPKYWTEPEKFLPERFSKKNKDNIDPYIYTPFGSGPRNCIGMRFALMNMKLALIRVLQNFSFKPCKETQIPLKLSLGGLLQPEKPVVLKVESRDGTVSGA
# experiment-summary: Inhibition of CYP3A4 (unknown origin) using BFC as substrate preincubated with compound followed by substrate addition at 5 mins
# Type: ADME

Sample answers from the record:
[
  {
    "smiles-repr": "CCC[C@@H](CCO)Nc1nc(N)nc2cnn(Cc3ncc(C4CCN(C(C)C)CC4)cc3OC)c12",
    "IC50": "> 20 µM"
  },
  {
    "smiles-repr": "CCC[C@@H](CCO)Nc1nc(N)nc2cnn(Cc3ncc(C4CCNCC4)cc3OC)c12",
    "IC50": "> 20 µM"
  },
  {
    "smiles-repr": "CCCCNc1nc(N)nc2cnn(Cc3ncc(C4CCNCC4)cc3OC)c12",
    "IC50": "> 20 µM"
  }
]

Would you be so kind as to report IC50 for each listed record?
1. CCC[C@@H](CCO)Nc1nc(N)nc2cnn(Cc3ncc(C4CC5(C4)CN(C4CCOCC4)C5)cc3OC)c12
2. CCCCNc1nc(N)nc2c(CC)nn(Cc3ncc(C4CCNCC4)cc3OC)c12
3. CCC[C@@H](CCO)Nc1nc(N)nc2cnn(Cc3ncc(C4CCN(C5CCNCC5)CC4)cc3OC)c12
4. CCC[C@@H](CCO)Nc1nc(N)nc2cnn(Cc3ncc(C4CCN(C5CCOCC5)CC4)cc3OC)c12
5. CCC[C@@H](CCO)Nc1nc(N)nc2cnn(Cc3ncc(C4=CC5(CCN(C6CCOCC6)CC5)C4)cc3OC)c12
6. CCCCNc1nc(N)nc2cnn(Cc3ccc(CNC4CCC4)cc3OC)c12
7. CCC[C@@H](CCO)Nc1nc(N)nc2cnn(Cc3ncc(C4CCN(C)CC4)cc3OC)c12

A.
1: > 20 µM; 2: > 20 µM; 3: > 20 µM; 4: > 20 µM; 5: > 20 µM; 6: 14.2 µM; 7: > 20 µM

# per-item lookup of IC50; items listed below
1. CCC[C@@H](CCO)Nc1nc(N)nc2cnn(Cc3ncc(C4CCN(C5CCN(C)CC5)CC4)cc3OC)c12
2. CCC[C@@H](CCO)Nc1nc(N)nc2cnn(Cc3ncc(C4CCC5(CC4)CNC5)cc3OC)c12
3. CCCCNc1nc(N)nc2c(C3CC3)nn(Cc3ncc(C4CCNCC4)cc3OC)c12
4. CCCCNc1nc(N)nc2c(C)nn(Cc3ncc(C4CCNCC4)cc3OC)c12

A.
["> 20 µM", "> 14 µM", "> 20 µM", "1.21 µM"]

Cytochrome P450 3A4 (Homo sapiens) IC50 of `CCC[C@@H](CCO)Nc1nc(N)nc2cnn(Cc3ncc(C4CCN(CC#N)CC4)cc3OC)c12` is > 20 µM

----------
# target-or-system: Toll-like receptor 7 (Mus musculus)
# Sequence (P58681 whole entry): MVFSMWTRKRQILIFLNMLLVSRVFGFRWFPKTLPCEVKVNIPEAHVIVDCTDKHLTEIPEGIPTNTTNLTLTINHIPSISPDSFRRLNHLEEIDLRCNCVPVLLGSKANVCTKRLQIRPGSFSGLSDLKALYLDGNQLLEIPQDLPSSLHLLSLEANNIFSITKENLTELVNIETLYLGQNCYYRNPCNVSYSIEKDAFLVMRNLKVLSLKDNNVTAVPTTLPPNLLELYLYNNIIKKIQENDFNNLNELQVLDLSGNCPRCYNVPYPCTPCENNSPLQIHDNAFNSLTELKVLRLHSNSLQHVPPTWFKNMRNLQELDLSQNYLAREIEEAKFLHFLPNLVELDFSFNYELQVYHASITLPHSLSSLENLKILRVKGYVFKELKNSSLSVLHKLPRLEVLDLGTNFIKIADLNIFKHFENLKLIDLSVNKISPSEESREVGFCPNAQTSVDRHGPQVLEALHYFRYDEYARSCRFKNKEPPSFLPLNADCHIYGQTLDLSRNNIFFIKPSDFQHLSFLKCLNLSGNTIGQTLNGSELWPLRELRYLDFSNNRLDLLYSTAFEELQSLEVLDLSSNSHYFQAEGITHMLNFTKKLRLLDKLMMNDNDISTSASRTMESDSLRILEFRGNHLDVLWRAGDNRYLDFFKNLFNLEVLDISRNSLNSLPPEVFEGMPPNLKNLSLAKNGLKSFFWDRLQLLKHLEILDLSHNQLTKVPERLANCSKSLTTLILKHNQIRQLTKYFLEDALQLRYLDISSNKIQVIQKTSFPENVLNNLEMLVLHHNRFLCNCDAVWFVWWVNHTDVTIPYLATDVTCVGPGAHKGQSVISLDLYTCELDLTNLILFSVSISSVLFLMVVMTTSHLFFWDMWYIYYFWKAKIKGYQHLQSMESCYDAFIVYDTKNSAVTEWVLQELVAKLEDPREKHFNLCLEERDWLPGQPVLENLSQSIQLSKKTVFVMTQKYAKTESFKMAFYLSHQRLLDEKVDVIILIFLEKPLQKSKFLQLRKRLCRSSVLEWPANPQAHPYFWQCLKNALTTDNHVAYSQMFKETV
# experiment-summary: Agonist activity at mouse TLR7
recorded-metric: EC50

Known results for compounds:
[
  {
    "smiles-repr": "CCC[C@@H](CCO)Nc1nc(N)nc2cnn(Cc3ncc(C4CCC5(CC4)CN(C(C)C)C5)cc3OC)c12",
    "EC50": "48 nM"
  },
  {
    "smiles-repr": "CCCCNc1nc(N)nc2c(C3CC3)nn(Cc3ncc(C4CCNCC4)cc3OC)c12",
    "EC50": "> 5000 nM"
  },
  {
    "smiles-repr": "CCC[C@@H](CCO)Nc1nc(N)nc2cnn(Cc3ncc(C4=CC5(CCNCC5)C4)cc3OC)c12",
    "EC50": "1910 nM"
  }
]

// batch mode: one EC50 value per listed entry
1. CCC[C@@H](CCO)Nc1nc(N)nc2cnn(Cc3ncc(C4CCN(C(C)C)CC4)cc3OC)c12
2. CCC[C@@H](CCO)Nc1nc(N)nc2cnn(Cc3ncc(C4CCNCC4)cc3OC)c12

A.
41 nM
512 nM

Hello, I would appreciate it if you could give EC50 for each entry below.
1. CCCCNc1nc(N)nc2c(C)nn(Cc3ncc(C4CCNCC4)cc3OC)c12
2. CCCCNc1nc(N)nc2c(CC)nn(Cc3ncc(C4CCNCC4)cc3OC)c12
3. CCC[C@@H](CCO)Nc1nc(N)nc2cnn(Cc3ncc(C4CC5(C4)CN(C(C)C)C5)cc3OC)c12
4. CCCCNc1nc(N)nc2cnn(Cc3ccc(C4CCNCC4)cc3OC(F)F)c12
5. CCC[C@@H](CCO)Nc1nc(N)nc2cnn(Cc3ncc(C4CC5(CNC5)C4)cc3OC)c12
6. CCCCNc1nc(N)nc2cnn(Cc3ccc(C4CCNCC4)cc3OC)c12
7. CCC[C@@H](CCO)Nc1nc(N)nc2cnn(Cc3ncc(C4CCN(C5CCOCC5)CC4)cc3OC)c12

A.
["> 5000 nM", "> 5000 nM", "626 nM", "465 nM", "1600 nM", "74 nM", "27 nM"]
